Exercise: state measured EC50 for each of the binders provided.
experimentalSystem: CLDN3/4 (endogenous on LS513 or MCF7 cells)
testMethodNotes: FACS titration of labelled mAb on LS513 cells (endogenous CLDN3/4+)
One number for each entry, in nM.

# binder, EC50 / nM
data = [
    ("AB9 (antibody, V domains shown) VH: EVQLQQSGPELVKPGASVKMSCKASGYRFTDYNMHWVKQSHGKSLEWIGYINPNNGGTNYNQNFKGKATLTVNKSSSTAYMELRSLTSEDSAAYYCARDYLYFFDCWGQGTTLTVSS VL: DIQMTQSPASQSASLGESVTITCLASQTIGTWLAWYQQKPGKSPQLLIYAAASLADGVPSRFSGSGSGTRFSFKISSLQAEDFVSYYCQQLYSIPRTFGGGTKLEIK", 1040),
    ("AB11 (antibody, V domains shown, full-length IgG (ExpiCHO)) VH: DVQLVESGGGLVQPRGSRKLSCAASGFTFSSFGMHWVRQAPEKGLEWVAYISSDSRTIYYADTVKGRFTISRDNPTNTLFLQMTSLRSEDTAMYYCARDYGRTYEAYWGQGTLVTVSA VL: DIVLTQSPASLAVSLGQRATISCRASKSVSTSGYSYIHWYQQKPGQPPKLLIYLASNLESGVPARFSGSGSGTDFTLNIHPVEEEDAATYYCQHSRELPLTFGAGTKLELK", 493),
]

AB3 (antibody, V domains shown, full-length IgG (ExpiCHO)) VH: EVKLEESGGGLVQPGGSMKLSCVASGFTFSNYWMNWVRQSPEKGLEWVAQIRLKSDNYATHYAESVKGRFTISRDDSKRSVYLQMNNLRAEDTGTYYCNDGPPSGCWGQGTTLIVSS VL: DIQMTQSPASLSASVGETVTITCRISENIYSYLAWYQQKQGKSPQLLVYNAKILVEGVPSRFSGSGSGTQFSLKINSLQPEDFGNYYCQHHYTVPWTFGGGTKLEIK yielded EC50 of 5000
